- System: intracellular proteome of ENR+CD and ENR organoids
- test_name: LC-MS/MS TMT proteomics of ENR+CD versus ENR organoids
- Assay type: cell-based, C57BL/6 mice
- condition_summary: up = enriched in ENR+CD, down = enriched in ENR; FDR<0.05 and log fold change cut-off
value_type: change

Inquiry: Value lookup for change; key = Q9CWY4 (protein, UniProt Q9CWY4 1-129, looked up, full-length) MQSPLTIPVPVPVLRLPRGPDGFSRGFASDGRRTILRPEVGEGHIQDPPESQEQRARATLRERYLRSLLAMVGHPVSFTLHEGVHVTAQFGATDLDVANFYVSQLQTPIGVQAEALLRCSDIISYSFKL
Reply text: down

Inquiry: Value lookup for change; key = Q9QYY9 (protein, UniProt Q9QYY9 1-377, looked up, full-length) MGTQGKVIKCKAAIAWKTGSPLCIEEIEVSPPKACEVRIQVIATCVCPTDINATDPKKKALFPVVLGHECAGIVESVGPGVTNFKPGDKVIPFFAPQCKRCKLCLSPLTNLCGKLRNFKYPTIDQELMEDRTSRFTCKGRSIYHFMGVSSFSQYTVVSEANLARVDDEANLERVCLIGCGFSSGYGAAINTAKVTPSSTCAVFGLGCVGLSAIIGCKIAGASRIIAIDINGEKFPKAKALGATDCLNPRELDKPVQDVITELTAGGVDYSLDCAGTAQTLKAAVDCTVLGWGSCTVVGAKVDKMTIPTVDVILGRSINGTFFGGWKSVDSVPNLVSDYKNKKFDLDLLVTHALPFESINDAIDLMKEGKSIRTILTF
Reply text: down

Inquiry: Value lookup for change; key = D3YUE4 (protein, UniProt D3YUE4 1-279, looked up, full-length) MAACAGGPGSWSENILKYFLRNNQITAEDGAEILWSHAANHKSQMNEALKSAAHMIEADVLLPSDGSEHGQPIMAHPPETSSDNTLQEWLAEVVKSNKGIKLDFKSLAAVRASMLFLDNMKQHLQRPVWINADILPGPNGSSKVVDAKAFLDTVTSFFPDVTFSLGWTTGWHPEKVNEGYSWSMVKEMDYICSELTQPVTFPVRAALVRQSCPQLLWLLTKSNRYSLTVWTGKDDIYSTEDLLYIRDYFNKTQVFYDISEPQNHEFKQAIGIRGHSLRI
Reply text: down

Inquiry: Value lookup for change; key = Q8VEE1 (protein, UniProt Q8VEE1 1-365, looked up, full-length) MAKVAKDLNPGVQKMSLGQQQSARGVACLRCKGMCSGFEPHSWRKICKSCKCSQEEHCLSSDLDDDRKIGRLLMDSKYATLTARVKGGDGIRIYKRNRMIMTNPIATGKDPTFDTITYEWAPPGVTQKLGLQYMELIPKERQPVTGTEGALYRRRQLMHQLPIYDQDPSRCRGLVENELKAMEEFVKHYKSEALGVGEVALPGQGGLPKEENKTQEKPEGTETTAPTTNGSLGDPSKEVEYVCELCKGAAPVDSPVVYADRAGYSKQWHPTCFQCIKCSEPLVDLIYFWKDGAPWCGRHYCESVRPRCSGCDEIIFSEDYQRVEDLAWHRKHFICEGCEQLLSGRAYIVTKGQLLCPTCSKSKRS
Reply text: down

Inquiry: Value lookup for change; key = Q8K023 (protein, UniProt Q8K023 1-323, looked up, full-length) MNSKIQKIELNDGHSIPVLGFGTYATEEHLKKKSMESTKIAIDVGFCHIDCSHLYQNEEEIGQAILSKIEDGTVKREDIFYTSKLWSTSHRPELVRPSLENSLRKLNLDYVDLYLIHFPVSLKPGNELLPKDEHGNLIFDTVDLCDTWEAMEKCKDAGLAKSIGVSNFNRRQLEMILNKPGLKYKPVCNQVECHLYLNQSKLLAYCKMNDIVLVAYGALGTQRYKYCINEDTPVLLDDPVLCAMAKKYKRTPALIALRYQLDRGIVALAKSFNEERIRENMQVFDFQLASDDMKILDGLDRNLRYFPADMFKAHPNFPFFDEY
Reply text: down

New cases:
Inquiry: Value lookup for change; key = P43137 (protein, UniProt P43137 1-165, looked up, full-length) MARNAYFILLSCLIVLSPSQGQEAEEDLPSARISCPEGSNAYSSYCYYFTEDRLTWADADLFCQNMNSGYLVSVLSQAEGNFVASLIKESGTTDANVWTGLHDPKRNRRWHWSSGSLFLYKSWATGSPNSSNRGYCVSLTSNTGYKKWKDDNCDAQYSFVCKFKG
Reply text: down

Inquiry: Value lookup for change; key = O09010 (protein, UniProt O09010 1-378, looked up, full-length) MLQRCGRRLLLALVGALLACLLVLTADPPPTPMPAERGRRALRSLAGSSGGAPASGSRAAVDPGVLTREVHSLSEYFSLLTRARRDADPPPGVASRQGDGHPRPPAEVLSPRDVFIAVKTTRKFHRARLDLLFETWISRHKEMTFIFTDGEDEALAKLTGNVVLTNCSSAHSRQALSCKMAVEYDRFIESGKKWFCHVDDDNYVNLRALLRLLASYPHTQDVYIGKPSLDRPIQATERISEHKVRPVHFWFATGGAGFCISRGLALKMGPWASGGHFMSTAERIRLPDDCTIGYIVEALLGVPLIRSGLFHSHLENLQQVPTTELHEQVTLSYGMFENKRNAVHIKGPFSVEADPSRFRSVHCHLYPDTPWCPRSAIF
Reply text: up

Inquiry: Value lookup for change; key = Q9D3P9 (protein, UniProt Q9D3P9 1-169, looked up, full-length) MRGMNLQLVCLTLLAFSSWSLCSDSEEDVRALEADLLTNMHTSKISKASPPSWKMTLLNVCSLINNVNSPAEEAGDMHDDDLVGKRKLPLVLDGFSLEAMLTIFQLQKICRSRAFQHWEIIQEDILDNVNDKNEKEEVIKRKIPYILKRQLYENKPRRPYILKRGSYYY
Reply text: up

Inquiry: Value lookup for change; key = P56395 (protein, UniProt P56395 1-134, looked up, full-length) MAGQSDKDVKYYTLEEIQKHKDSKSTWVILHHKVYDLTKFLEEHPGGEEVLREQAGGDATENFEDVGHSTDARELSKTYIIGELHPDDRSKIAKPSDTLITTVESNSSWWTNWVIPAISALAVALMYRLYMAED
Reply text: down
